Molecular target: T1, human c-Met ECD-Fc-Flis (human)
T1 construct: c-Met ECD fused to Fc with flag- and His-tag at the C-terminus; also called human c-Met extracellular domain (ECD)-Fc-Flis fusion; human c-Met-Flis-Fc ECD
T1 sequence (chain, as listed by the source): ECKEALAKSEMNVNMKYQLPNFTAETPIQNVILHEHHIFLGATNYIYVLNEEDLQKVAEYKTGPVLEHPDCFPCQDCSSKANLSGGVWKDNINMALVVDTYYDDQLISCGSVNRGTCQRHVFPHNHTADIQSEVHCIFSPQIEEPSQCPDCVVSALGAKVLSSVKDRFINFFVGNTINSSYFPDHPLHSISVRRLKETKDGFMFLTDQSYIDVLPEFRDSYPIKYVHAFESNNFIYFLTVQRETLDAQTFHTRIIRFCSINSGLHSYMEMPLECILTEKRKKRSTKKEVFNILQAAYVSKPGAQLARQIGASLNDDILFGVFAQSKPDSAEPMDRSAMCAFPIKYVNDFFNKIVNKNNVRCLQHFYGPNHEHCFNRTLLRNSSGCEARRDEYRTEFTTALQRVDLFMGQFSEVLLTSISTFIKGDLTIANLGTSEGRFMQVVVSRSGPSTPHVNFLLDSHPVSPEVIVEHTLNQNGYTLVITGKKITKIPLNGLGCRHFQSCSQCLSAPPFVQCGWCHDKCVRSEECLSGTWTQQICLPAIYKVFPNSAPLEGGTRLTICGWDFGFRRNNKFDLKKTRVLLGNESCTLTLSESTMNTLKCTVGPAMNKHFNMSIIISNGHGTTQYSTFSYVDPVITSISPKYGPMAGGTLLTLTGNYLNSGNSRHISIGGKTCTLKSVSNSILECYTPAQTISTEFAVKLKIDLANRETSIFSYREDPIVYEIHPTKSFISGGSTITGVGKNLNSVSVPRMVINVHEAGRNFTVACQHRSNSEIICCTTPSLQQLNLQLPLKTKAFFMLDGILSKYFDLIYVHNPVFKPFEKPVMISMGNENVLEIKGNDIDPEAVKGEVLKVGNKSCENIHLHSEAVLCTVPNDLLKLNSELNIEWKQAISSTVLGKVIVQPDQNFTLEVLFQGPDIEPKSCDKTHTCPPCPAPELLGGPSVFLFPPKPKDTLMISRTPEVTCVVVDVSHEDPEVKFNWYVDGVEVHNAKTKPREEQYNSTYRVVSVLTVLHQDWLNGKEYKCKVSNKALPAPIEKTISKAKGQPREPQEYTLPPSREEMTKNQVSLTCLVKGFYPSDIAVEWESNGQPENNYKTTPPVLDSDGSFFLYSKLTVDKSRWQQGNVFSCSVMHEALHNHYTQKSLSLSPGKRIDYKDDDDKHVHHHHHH
Test: HGF-blocking ELISA: HGF signal on coated c-Met ECD-Fc-Flis; Ab 1953.13 ng/mL
Text: […]
quantity.kind: AVG A450 nm (A450 nm)
Give just the numeric value; A450 nm need not be written.

binder | quantity.kind | numeric.result
D11-8B8 (antibody, human IgG2, kappa, V domains shown, Human engineered IgG2 kappa c-Met antibody; also called Mab D11-8B8; D11-8B8 IgG2) VH: QVQLVQSGAEVKKPGSSVKVSCKASGYTFTSRYIHWVRQAPGQGLEWMGWIYPVTGDTYYIEKFKGRVTITADKSTSTAYMELSSLRSEDTAVYYCARGYGAFFYWGQGTLVTVSS VL: EIVLTQSPGTLSLSPGERATLSCSVSSSISSTNLHWYQQKPGQAPRLLIYGTSYLASGIPDRFSGSGSGTDFTLTISRLEPEDFAVYYCQQWSSYPYSFGQGTKLEIKR | AVG A450 nm | 1.43
D11-C27G3 (antibody, human IgG2, kappa, V domains shown, Human engineered IgG2 kappa c-Met antibody; also called D11-27G3; D11-C27G3 IgG2) VH: QVQLVQSGAEVKKPGSSVKVSCKASGYTFTSRYIHWVRQAPGQGLEWMGWIYPVTGDTYYREPFKGRVTITADKSTSTAYMELSSLRSEDTAVYYCARGYGAFYYWGQGTLVTVSS VL: EIVLTQSPGTLSLSPGERATLSCSVSSSISSTNLHWYQQKPGQAPRLLIYGTSRLRSGIPDRFSGSGSGTDFTLTISRLEPEDFAVYYCQQWSSYPYSFGQGTKLEIKR | AVG A450 nm | 0.97

*Q* Param item = C8-6 (antibody, human IgG2, kappa, V domains shown, Named IgG4 kappa; also called C8-6 IgG4) VH: QVQLVQSGAEVKKPGASVKVSCKASGYTFTDYYMHWVRQAPGQGLEWMGRVNPNRGGTTYNQKFEGRVTMTTDTSTSTAYMELRSLRSDDTAVYYCARTNWLDYWGQGTTVTVSS VL: DIQMTQSPSSLSASVGDRVTITCSVSSSVSSIYLHWYQQKPGKAPKLLIYSTSNLASGVPSRFSGSGSGTDFTLTISSLQPEDFATYYCIQYSGYPLTFGGGTKVEIKR ; retrieve measured AVG A450 nm.
*A* 1.08

Cited source for all entries: patent US20100129369A1
